- Test system: NCI-H226 lung
- Assay Details: NCI-60 one-dose screen, 48 h
- Recorded Conditions: 10 µM unless noted
The panel holds about 83,000 compounds, 20% with a hit somewhere; the sample as a whole holds those more often. Active and inactive are the calls of the source. The calls were made as follows: active = growth percent below 10; inactive = the rest.
Outcome codes: Yes = active, No = inactive

>>> print(df.to_string())
                                        mol  discrete_label
0  Cc1cc(NS(=O)(=O)c2ccc(-c3cnc(C4CC4)o3)cc2)ccc1Cl              No
1    Cc1ccc(NC(=O)/C=C/c2ccccc2)c(C(N)=O)c1              No
2   C#CCOc1ccc2ncnc(N3CCN(C(=O)CCl)CC3)c2c1             Yes
3  CC(C)(C)CC(C)(C)c1ccc(OCCOCC[N+](C)(C)Cc2ccccc2)cc1              No
4  Cc1cc(N2CCOCC2)nc(N[C@@H]2CCC[C@H](Nc3ccnc4cc(Cl)ccc34)C2)n1              No

---

- Test system: DU-145 prostate
- Assay Details: NCI-60 one-dose screen, 48 h (100 = growth as untreated, 0 = no growth, -100 = all killed)
- Recorded Conditions: 10 µM unless noted
This is part of a sample that, as a whole, favours compounds with a hit. Of some 83,000 tested, about 20% had one in any assay.
Parameter: growth (%)

                                   molecule  result_value
0  O=C1Nc2ccc(Br)cc2C12Oc1ccccc1C1CC(c3ccc(F)cc3)=NN12 (centres undefined)           100
1        COc1ccc(/C=C/C(=O)c2cc(O)ccc2O)cc1          89.3
2  COc1cccc(-c2nc3sccn3c2-c2ccnc(NCCCNS(=O)(=O)c3c(Cl)cccc3Cl)c2)c1          66.1
3  CN(C)[C@@H]1C(=O)C(C(=O)NCc2nc3[nH]cnc(=S)c3[nH]2)=C(O)[C@@]2(O)C(=O)C3=C(O)c4c(O)cccc4[C@@](C)(O)[C@H]3C[C@@H]12          42.6
4  COc1cc(C2CC(=O)c3ccccc3N2)cc(OC)c1OC (centres undefined)           117
5  CC(C)n1c(/C=C/[C@@H](O)C[C@@H](O)CC(=O)O)c(-c2ccc(F)cc2)c2ccccc21          97.9
6  CN1CCN(c2nc(NCCCNc3ccnc4cc(Cl)ccc34)c3ccccc3n2)CC1          59.8
7  COc1cc(/C=C/C(=O)Nc2cccnc2Nc2ccc(F)cc2)cc(OC)c1OC           110
8         O=c1ccccc(-c2ccc(-c3ccco3)cc2)c1O          19.7

---

growth reference
- Test system: TK-10 renal
- Assay Details: NCI-60 one-dose screen, 48 h (100 = growth as untreated, 0 = no growth, -100 = all killed)
- Recorded Conditions: 10 µM unless noted
This is part of a sample that, as a whole, favours compounds with a hit. Of some 83,000 tested, about 20% had one in any assay.
Parameter: growth (%)

>>> df
                                        mol  measured_target  parameter  result_value
0    Cc1oc(-c2ccc(Cl)cc2Cl)cc1C(=O)Nc1nccs1      TK-10 renal     growth           103
1          CN(C)C(=S)N=Nc1c(O)[nH]c2ccccc12      TK-10 renal     growth          28.9
2  COc1ccc(-n2nc(C)c3c(Nc4ccc(NC(=O)Nc5ccc(Cl)c(C(F)(F)F)c5)cc4)ncnc32)cc1      TK-10 renal     growth          5.29
3  Cn1cc(-c2nonc2-c2c[nH]c3ccc(F)cc23)c2cccnc21      TK-10 renal     growth          85.9
4  FC(F)(F)c1ccc(-c2cn3nc(-c4c[nH]c5ccc(Br)cc45)sc3n2)cc1      TK-10 renal     growth           112
